Target: Human recombinant AT1 receptor (Homo sapiens, UniProt P30556)
Sequence (P30556 1-359): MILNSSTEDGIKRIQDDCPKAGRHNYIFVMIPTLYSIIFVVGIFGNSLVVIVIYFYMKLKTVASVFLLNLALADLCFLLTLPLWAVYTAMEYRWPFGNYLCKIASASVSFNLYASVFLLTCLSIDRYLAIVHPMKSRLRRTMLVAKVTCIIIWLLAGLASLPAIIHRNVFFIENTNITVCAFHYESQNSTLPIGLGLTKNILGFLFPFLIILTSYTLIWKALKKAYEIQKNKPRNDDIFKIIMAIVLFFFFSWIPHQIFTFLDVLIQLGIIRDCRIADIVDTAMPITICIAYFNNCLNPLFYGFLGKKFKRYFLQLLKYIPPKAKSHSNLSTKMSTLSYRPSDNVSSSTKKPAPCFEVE
Test: AT1 receptor radioligand binding (flashplate)
Conditions: 125I Sar1,Ile8-Angiotensin II radioligand
attribute measured: IC50 (nM)

State IC50 on Human recombinant AT1 receptor (Homo sapiens, UniProt P30556). Entry: CCc1nc2c(C)cc(CCCn3cccn3)nc2n1[C@H]1CCc2cc(-c3ccccc3-c3nnn[nH]3)ccc21
2.1

State IC50 on Human recombinant AT1 receptor (Homo sapiens, UniProt P30556). Entry: CCc1nc2c(C)cc(CC(O)CC(C)C)nc2n1[C@H]1CCc2cc(-c3ccccc3-c3nnn[nH]3)ccc21 (some centres unmarked)
5.4

State IC50 on Human recombinant AT1 receptor (Homo sapiens, UniProt P30556). Entry: CCc1nc2c(C)cc(CCc3ccccn3)nc2n1[C@H]1CCc2cc(-c3ccccc3-c3nnn[nH]3)ccc21
2.4

State IC50 on Human recombinant AT1 receptor (Homo sapiens, UniProt P30556). Entry: CCc1nc2c(C)cc(CCC3CCCCC3)nc2n1[C@H]1CCc2cc(-c3ccccc3-c3nnn[nH]3)ccc21
3.8

1 = CCc1nc2c(C)cc(CCC(O)CC)nc2n1[C@H]1CCc2cc(-c3ccccc3-c3nnn[nH]3)ccc21 (some centres unmarked)
2 = CCCc1nc2c(C)cc(CCC(C)(O)CC)nc2n1[C@H]1CCc2cc(-c3ccccc3-c3nnn[nH]3)ccc21 (some centres unmarked)
3 = CCc1nc2c(C)cc(CCc3ccccc3)nc2n1[C@H]1CCc2cc(-c3ccccc3-c3nnn[nH]3)ccc21
4 = CCc1nc2c(C)cc(C(C)(C)OC)nc2n1[C@H]1CCc2cc(-c3ccccc3-c3nnn[nH]3)ccc21
Sort these compounds on IC50 so the largest reading comes first. Write the labels in rank order as requested.
4, 3, 2, 1

a = CCCc1nc2c(C)cc(CCC(C)(O)c3ccccc3)nc2n1[C@H]1CCc2cc(-c3ccccc3-c3nnn[nH]3)ccc21 (some centres unmarked)
b = CCc1nc2c(C)cc(CC[C@@H](C)OC)nc2n1[C@H]1CCc2cc(-c3ccccc3-c3nnn[nH]3)ccc21
Lab note: record which item had the higher IC50, a or b . Pick one and reply with its label.
a
(a: 2.1 nM, b: 1.1 nM)

###

Target: human PPARγ LBD bound to Gal4 DBD (Homo sapiens, UniProt P37231)
Construct: expressed in transfected cells; host or cells: HepG2
Sequence (P37231 238-503 limits assumed): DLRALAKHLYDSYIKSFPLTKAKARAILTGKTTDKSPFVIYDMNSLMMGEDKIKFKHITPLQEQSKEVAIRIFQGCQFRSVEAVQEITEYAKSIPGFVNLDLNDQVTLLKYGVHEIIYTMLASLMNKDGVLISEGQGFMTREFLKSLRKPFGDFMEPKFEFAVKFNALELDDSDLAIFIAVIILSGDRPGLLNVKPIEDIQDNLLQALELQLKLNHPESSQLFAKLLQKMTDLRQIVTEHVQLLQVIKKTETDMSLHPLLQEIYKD
Assay: PPARγ transfection luciferase reporter assay in HepG2 cells
Type: cell-based
Conditions: HepG2, 24 h; compared to full agonist response (standard TZD full agonist); read-out: PPARγ % activation
attribute measured: Emax (%)

Please give the documented Emax of CCc1nc2c(C)cc(CCC(C)(O)CC(C)C)nc2n1[C@H]1CCc2cc(-c3ccccc3-c3nnn[nH]3)ccc21 (stereo partly shown)
36

Please give the documented Emax of CCc1nc2c(C)cc(CCC(C)(O)C(C)(C)C)nc2n1[C@H]1CCc2cc(-c3ccccc3-c3nnn[nH]3)ccc21 (stereo partly shown)
34

Please give the documented Emax of CCc1nc2c(C)cc(CCC3(O)CCCCC3)nc2n1[C@H]1CCc2cc(-c3ccccc3-c3nnn[nH]3)ccc21
36

Please give the documented Emax of C=CCc1cc(C)c2nc(CC)n([C@H]3CCc4cc(-c5ccccc5-c5nnn[nH]5)ccc43)c2n1
27

Please give the documented Emax of CCc1nc2c(C)cc(CC[C@H](O)CC)nc2n1[C@H]1CCc2cc(-c3ccccc3-c3nnn[nH]3)ccc21
32

Please give the documented Emax of CCc1nc2c(C)cc(CCC3CC3)nc2n1[C@H]1CCc2cc(-c3ccccc3-c3nnn[nH]3)ccc21
30

Please give the documented Emax of CCc1nc2c(C)cc(CCCO)nc2n1[C@H]1CCc2cc(-c3ccccc3-c3nnn[nH]3)ccc21
34
